experimental-target: T1, high-affinity IL-2R (containing the α/β/γc-subunits of the IL-2R) expressed on CTLL-2 cells (mouse, UniProt P01590 22-268; P16297 27-539; P34902 23-369)
T1 sequence (looked up) 1: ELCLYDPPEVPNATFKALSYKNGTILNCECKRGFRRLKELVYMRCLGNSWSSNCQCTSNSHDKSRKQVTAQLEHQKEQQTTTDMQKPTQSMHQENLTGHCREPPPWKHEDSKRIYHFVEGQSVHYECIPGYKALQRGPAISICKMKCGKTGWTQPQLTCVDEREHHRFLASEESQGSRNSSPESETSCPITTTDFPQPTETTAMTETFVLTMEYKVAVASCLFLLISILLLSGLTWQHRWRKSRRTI
T1 sequence (looked up) 2: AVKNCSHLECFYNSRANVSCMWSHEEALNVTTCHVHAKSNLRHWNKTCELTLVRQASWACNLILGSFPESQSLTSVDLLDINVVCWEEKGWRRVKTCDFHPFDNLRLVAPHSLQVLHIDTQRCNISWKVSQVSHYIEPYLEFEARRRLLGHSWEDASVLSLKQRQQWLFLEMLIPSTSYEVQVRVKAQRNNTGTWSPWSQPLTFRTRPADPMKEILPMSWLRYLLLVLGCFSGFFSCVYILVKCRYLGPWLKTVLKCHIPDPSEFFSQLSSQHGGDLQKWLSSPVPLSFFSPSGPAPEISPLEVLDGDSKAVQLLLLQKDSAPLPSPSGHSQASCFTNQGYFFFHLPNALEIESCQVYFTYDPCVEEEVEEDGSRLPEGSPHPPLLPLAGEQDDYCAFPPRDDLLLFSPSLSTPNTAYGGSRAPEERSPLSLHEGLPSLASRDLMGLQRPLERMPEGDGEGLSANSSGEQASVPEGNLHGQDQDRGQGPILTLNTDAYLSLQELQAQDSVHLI
T1 sequence (looked up) 3: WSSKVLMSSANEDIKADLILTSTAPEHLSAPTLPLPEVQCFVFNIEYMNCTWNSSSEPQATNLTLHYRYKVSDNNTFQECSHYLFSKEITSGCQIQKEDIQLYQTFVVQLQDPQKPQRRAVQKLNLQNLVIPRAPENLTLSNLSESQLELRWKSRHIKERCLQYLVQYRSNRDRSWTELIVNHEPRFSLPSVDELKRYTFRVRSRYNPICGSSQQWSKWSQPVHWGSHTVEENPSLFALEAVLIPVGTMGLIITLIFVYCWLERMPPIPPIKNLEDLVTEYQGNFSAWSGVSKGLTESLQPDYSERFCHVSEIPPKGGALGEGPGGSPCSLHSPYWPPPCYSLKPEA
test: cell-based or functional assay
Provide the reported EC50 of pSTAT-5 induction in CTLL-2 cells (flow cytometry) of each item.
Quick note: give the figure in nM, leave out the unit.

Record IL-2 variant IL-2_#3 (F42V, Y45A, L72N, C125G) (ligand) APTSSSTKKTQLQLEHLLLDLQMILNGINNYKNPKLTRMLTVKFAMPKKATELKHLQCLEEELKPLEEVLNNAQSKNFHLRPRDLISNINVIVLELKGSETTFMCEYADETATIVEFLNRWITFGQSIISTLT . Reported EC50 of pSTAT-5 induction in CTLL-2 cells (flow cytometry): 44.1

Record IL-2 variant IL-2_#9 (F42H, Y45D, L72I, C125G) (ligand) APTSSSTKKTQLQLEHLLLDLQMILNGINNYKNPKLTRMLTHKFDMPKKATELKHLQCLEEELKPLEEVLNIAQSKNFHLRPRDLISNINVIVLELKGSETTFMCEYADETATIVEFLNRWITFGQSIISTLT . Reported EC50 of pSTAT-5 induction in CTLL-2 cells (flow cytometry): 10

Record IL-2 variant IL-2_#12 (F42C, Y45N, L72V) (ligand) APTSSSTKKTQLQLEHLLLDLQMILNGINNYKNPKLTRMLTCKFNMPKKATELKHLQCLEEELKPLEEVLNVAQSKNFHLRPRDLISNINVIVLELKGSETTFMCEYADETATIVEFLNRWITFCQSIISTLT . Reported EC50 of pSTAT-5 induction in CTLL-2 cells (flow cytometry): 2.32

Record IL-2 variant IL-2_#8 (F42V, Y45S, L72N, C125G) (ligand) APTSSSTKKTQLQLEHLLLDLQMILNGINNYKNPKLTRMLTVKFSMPKKATELKHLQCLEEELKPLEEVLNNAQSKNFHLRPRDLISNINVIVLELKGSETTFMCEYADETATIVEFLNRWITFGQSIISTLT . Reported EC50 of pSTAT-5 induction in CTLL-2 cells (flow cytometry): 120
